These data points were gathered from patent US9597271B2.

- Target Or Test System: 20S proteasome (Mus musculus)
- Construct: endogenous in cells; host or cells: B16 melanoma cells (lysate after 20-24 h treatment)
- Assay Procedure: Proteasomal protease in vitro assay (ProteasomeGlo, Suc-LLVY luminogenic substrate) in B16 melanoma cells
- Format: cell-based
- Test Settings: experiment #1, N=3; B16 melanoma cells, 20 to 24 hours; DMSO vehicle
Reported Metric: Fold Change Over Control (luminescence)

Compound: CCCCCC[C@@H](O)C/C=C\CCCCCCCC(=O)[O-].[Na+] [Sodium ricinoleate, sodium ricinoleate]
Fold Change Over Control (luminescence): 1.26

Compound: CCCCCC[C@@H](O)C/C=C\CCCCCCCC(=O)OCC(O)CO (stereo partly shown) [Glyceryl ricinoleate, glyceryl ricinoleate]
Fold Change Over Control (luminescence): 1.15

Compound: CCCCCC[C@H](C/C=C\CCCCCCCC(=O)OCCCC)OC(C)=O [Butyl acetyl ricinoleate, butyl acetyl ricinoleate]
Fold Change Over Control (luminescence): 1.32

Compound: CCCCCCCCC(CO)CCCCCC (stereo not shown) [2-hexyldecanol, reference compound]
Fold Change Over Control (luminescence): 1.15

====

- Target Or Test System: 20S proteasome (Mus musculus, UniProt O55234)
- Construct: endogenous in cells; host or cells: B16 melanoma cells (lysate after 20-24 h treatment)
- Sequence (O55234 60-264): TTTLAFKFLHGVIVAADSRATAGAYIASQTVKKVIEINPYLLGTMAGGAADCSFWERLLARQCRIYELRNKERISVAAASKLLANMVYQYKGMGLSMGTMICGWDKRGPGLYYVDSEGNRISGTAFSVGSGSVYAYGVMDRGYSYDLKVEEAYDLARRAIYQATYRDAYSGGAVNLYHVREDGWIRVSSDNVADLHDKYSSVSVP
- Assay Procedure: Proteasomal protease in vitro assay (ProteasomeGlo, Suc-LLVY luminogenic substrate) in B16 melanoma cells
- Type: cell-based
- Test Settings: experiment #2, N=3; B16 melanoma cells, 20 to 24 hours; DMSO vehicle
Reported Metric: Fold Change Over Control (luminescence)

Compound: CCCCCC[C@@H](O)C/C=C\CCCCCCCC(=O)OCC(O)CO (stereo partly shown) [Glyceryl ricinoleate, glyceryl ricinoleate]
Reported Metric: Fold Change Over Control (luminescence)
Val: 1.18
//
Compound: CCCCCC[C@@H](O)C/C=C\CCCCCCCC(=O)[O-].[Na+] [Sodium ricinoleate, sodium ricinoleate]
Reported Metric: Fold Change Over Control (luminescence)
Val: 1.21
//
Compound: CCCCCC[C@H](C/C=C\CCCCCCCC(=O)OCCCC)OC(C)=O [Butyl acetyl ricinoleate, butyl acetyl ricinoleate]
Reported Metric: Fold Change Over Control (luminescence)
Val: 1.26
//
Compound: CCCCCCCCC(CO)CCCCCC (stereo not shown) [2-hexyldecanol, reference compound]
Reported Metric: Fold Change Over Control (luminescence)
Val: 1.17

====

- Target Or Test System: 20S proteasome (Mus musculus)
- Construct: endogenous in cells; host or cells: B16 melanoma cells (lysate after 20-24 h treatment)
- Assay Procedure: Proteasomal protease in vitro assay (ProteasomeGlo, Suc-LLVY luminogenic substrate) in B16 melanoma cells
- Assay type: cell-based
- Test Settings: Avg. of experiments #1 and #2; B16 melanoma cells
Reported Metric: Fold Change Over Control (luminescence)

Compound: CCCCCC[C@@H](O)C/C=C\CCCCCCCC(=O)[O-].[Na+] [Sodium ricinoleate, sodium ricinoleate]
Fold Change Over Control (luminescence): 1.24
//
Compound: CCCCCC[C@@H](O)C/C=C\CCCCCCCC(=O)OCC(O)CO (stereo partly shown) [Glyceryl ricinoleate, glyceryl ricinoleate]
Fold Change Over Control (luminescence): 1.17
//
Compound: CCCCCCCCC(CO)CCCCCC (stereo not shown) [2-hexyldecanol, reference compound]
Fold Change Over Control (luminescence): 1.16
//
Compound: CCCCCC[C@H](C/C=C\CCCCCCCC(=O)OCCCC)OC(C)=O [Butyl acetyl ricinoleate, butyl acetyl ricinoleate]
Fold Change Over Control (luminescence): 1.29
